- System: MCF7 breast
- Measurement description: NCI tumour cell line growth inhibition, 48 h
Reported GI50 values follow for various compounds

>>> df
                                 cpd_smiles  reading
0             O=c1c(O)cccc2cc(O)c(O)c(O)c12  6.46 µM
1  COc1cc(Nc2ncc(F)c(Nc3ccc4c(n3)NC(=O)C(C)(C)O4)n2)cc(OC)c1OC  3.93 µM

Look up GI50 with MCF7 breast for this compound: CC#C/C(=N\OC[C@H]1COCCN1)c1ccc2ncnc(Nc3ccc(OCc4cccc(F)c4)c(Cl)c3)c2c1
1.57 µM

----------
- Test system: SW-620 colon
- Measurement description: NCI tumour cell line growth inhibition, 48 h; in the data active means GI50 below about 0.43 µM; inactive means the rest
Result category, one only: active, inactive

# count of solved cases: 8
In [3]: df
Out[3]:
                                   compound  classification
0  Clc1ccc(C2=Nn3c(nnc3-c3cc(Cl)cc(Cl)c3Cl)SC2)cc1        inactive
1  CC(=O)[O-].[Mn+3].[O-]c1ccccc1C=NCCN=Cc1ccccc1[O-]        inactive
2                  N#CC(C#N)N=Nc1ccc(Br)cc1        inactive
3  COc1ccc(-c2nc(C(=O)c3ccccc3)n(CC(=O)c3ccccc3)c2-c2ccc(OC)cc2)cc1        inactive
4  N#CSc1c[nH]c2ccc(/C=C/C(=O)/C=C(/C=C/c3ccc4[nH]cc(SC#N)c4c3)OB(F)F)cc12          active
5             O=c1c(O)cccc2cc(O)c(O)c(O)c12        inactive
6  COC1C(O)C(C)OC(OC2C(Oc3cccc4c(O)c5c(=O)oc6ccc(C)c7c(=O)oc(c34)c5c67)OC(C)C(O)C2O)C1O (stereo unspecified)        inactive
7  CCCCCCCCCCCCCCCC[N+](C)(CCO)Cc1cnc[nH]1 (stereo unspecified)        inactive

# outcome recorded in this test, key = O=Cc1ccc(-c2ccc(-c3nc4ccccc4o3)cc2)s1
inactive

Each compound tested received a call. Report the one for CN1CCN(c2cc(C(=O)Nc3cc4cc(-c5cnn(C)c5)ccc4cn3)ccn2)CC1 .
active

# outcome recorded in this test, key = CS(=O)(=O)Nc1cccc(-c2cc(-c3ccccc3Cl)c(C#N)c(N)n2)c1
active

----------
- Test system: SK-MEL-5 melanoma
- Measurement description: NCI tumour cell line growth inhibition, 48 h
Property name: TGI (µM)
Just the number in µM, nothing appended.

>>> print(df.to_string())
                                   compound       assay_target  property_name  reading
0  COc1cc(C=C2C(C)=NN(c3cccc(Cl)c3)C23C(Cl)C(=O)N3c2nc3ccccc3s2)ccc1O (stereo not given)  SK-MEL-5 melanoma            TGI     36.9

May I ask what TGI has been recorded for Fc1ccc(-c2ncn(C3CCNCC3)c2-c2ccnc(Oc3ccc(F)c(F)c3)n2)cc1 ?
6.83

----------
- System: HS 578T breast
- Measurement description: NCI tumour cell line growth inhibition, 48 h
Note to self: values exactly at 60 µM are yes (1). So TGI at or above 60 µM is yes (1), below is no (0).

Would you please look over these solved cases?
                                   compound    assay_target  classification
0   CCOC(=O)c1nc2ccccc2nc1Nc1ccc(OC)c(OC)c1  HS 578T breast         yes (1)
1  CN1C(=O)[C@@H](NC(=O)[C@H](CCC(F)(F)F)[C@H](CCC(F)(F)F)C(N)=O)N=C(c2ccccc2)c2ccccc21  HS 578T breast         yes (1)
2  C/C=C\C(CC(=O)NCCC1CN(S(=O)(=O)C(F)(F)F)c2ccccc21)CC(=O)OC (stereo not given)  HS 578T breast         yes (1)
3  CS(=O)(=O)CCNCc1ccc(-c2ccc3ncnc(Nc4ccc(OCc5cccc(F)c5)c(C(F)(F)F)c4)c3c2)o1  HS 578T breast          no (0)
4            Cc1nc(CN2CCCCC2)c(O)c(=O)[nH]1  HS 578T breast         yes (1)
5  C[C@@H]1Cc2c([nH]c3ccccc23)[C@@H](c2c(F)cc(NC3CN(CCCF)C3)cc2F)N1CC(F)(F)CO  HS 578T breast          no (0)

Okay, now this compound:
Hello, I need to know if OC(COc1ccc(F)cc1)Cn1cnc2c(Cl)ncnc21 (stereo not given) has measured TGI not below 60 µM. Thanks!
yes (1)
